Biological target: Glucokinase (Homo sapiens)
Sequence (P35557 whole entry): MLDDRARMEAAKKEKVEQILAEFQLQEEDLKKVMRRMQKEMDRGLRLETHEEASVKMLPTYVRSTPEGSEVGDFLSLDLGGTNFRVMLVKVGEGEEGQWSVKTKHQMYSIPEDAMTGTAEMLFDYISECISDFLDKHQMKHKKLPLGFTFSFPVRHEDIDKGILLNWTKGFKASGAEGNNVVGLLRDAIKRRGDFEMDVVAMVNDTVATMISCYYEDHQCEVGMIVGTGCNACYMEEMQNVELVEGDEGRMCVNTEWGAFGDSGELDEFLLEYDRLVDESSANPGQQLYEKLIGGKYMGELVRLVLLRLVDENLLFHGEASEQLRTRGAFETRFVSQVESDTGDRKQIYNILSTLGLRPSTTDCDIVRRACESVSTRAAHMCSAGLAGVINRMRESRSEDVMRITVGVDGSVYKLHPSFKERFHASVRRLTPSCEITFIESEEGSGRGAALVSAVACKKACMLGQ
Assay: Glucokinase Activation Screening Assay (coupled enzyme assay with PK/LDH)
Type: biochemical
Settings: human GK enzyme
Endpoint Label: fold activation (human) (fold)
Answers are plain numbers, in fold.

Some entries whose results are on file:
Compound	Endpoint Label	Measured Value
CN(C)c1cc(C(=O)Nc2ccn(Cc3cccnc3)n2)cc(Oc2ccccc2)n1 [B2]	fold activation (human)	3.3
COCC(C)Oc1cc(OC(C)COC)nc(C(=O)Nc2ccn(C)n2)n1 (stereo not drawn) [B7]	fold activation (human)	1.3
COCCN(C)c1cc(C(=O)Nc2ccn(Cc3cccnc3)n2)cc(Oc2ccccc2)n1 [B4]	fold activation (human)	1.8
CN(Cc1ccccc1)c1cc(C(=O)Nc2ccn(C)n2)cc(Oc2ccccc2)n1 [B8]	fold activation (human)	1.4
COCCN(C)c1cc(C(=O)Nc2ccn(C)n2)cc(Oc2ccccc2)n1 [B6]	fold activation (human)	3.4

# evaluate next
Specify measured fold activation (human) for Cn1ccc(NC(=O)c2cc(Cl)nc(Oc3ccccc3)c2)n1 [B5] .
1.3

Ref: patent US20110009437A1
